Origin of the recorded values: paper PMC8287531

Biological target: T1, TLNRD1 four-helix domain (TLNRD1-4H, residues 143-273) (human, UniProt Q9H1K6 143-273)
T1 construct: Human TLNRD1 four-helix domain, residues 143-273, sub-cloned into pET151; Density was traced for residues 148-270 in PDB 6XZ3; also called 4H domain
T1 sequence (Q9H1K6 143-273): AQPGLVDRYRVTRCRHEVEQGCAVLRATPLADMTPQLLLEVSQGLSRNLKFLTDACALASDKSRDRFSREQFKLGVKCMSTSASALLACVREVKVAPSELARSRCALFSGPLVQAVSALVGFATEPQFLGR
Assay: fluorescence polarisation; serial dilution of protein against 100 nM fluorescein- or BODIPY-TMR-coupled peptide; 20°C; one-site total binding equation; triplicate
Settings: both partners purified
pKd: −log10 of the molar value.
readout-name: pKd

EDQDLDKMFGAWLGELDRLTQSLDSDKC (coupled with either a fluorescein or BODIPY-TMR dye (which one is not stated for this peptide), Lamellipodin residues 20-46; added C-terminal cysteine residue; source: synthetic peptide (GLBiochem, Shanghai)) [lamellipodin(20-46) peptide] | 5.05
